Values from patent US20160297884A1

Biological target: T1, Human BCMA (human, UniProt Q02223 1-54, limits assumed)
T1 construct: Soluble analyte in SPR; construct not described; also called huBCMA; B-cell maturation antigen
T1 sequence (looked up): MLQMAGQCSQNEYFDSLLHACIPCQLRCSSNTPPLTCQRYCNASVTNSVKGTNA
Assay: SPR, IgG immobilised, 25 C
Reported T ½ values follow for various binders
Answer format: value, then unit.

Known results for binders:
binder	measured-value
L1.GDF/L3.KW/H3.AP (antibody, V domains shown, IgG) VH: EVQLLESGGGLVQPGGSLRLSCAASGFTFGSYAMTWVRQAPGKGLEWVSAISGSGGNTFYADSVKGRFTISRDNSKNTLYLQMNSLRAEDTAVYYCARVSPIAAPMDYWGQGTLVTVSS VL: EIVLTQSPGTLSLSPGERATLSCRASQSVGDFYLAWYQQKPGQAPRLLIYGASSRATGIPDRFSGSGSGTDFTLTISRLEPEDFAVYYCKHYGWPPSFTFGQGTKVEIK	2.51 min
L1.LGF/L3.NY/H3.AQ (antibody, V domains shown, IgG) VH: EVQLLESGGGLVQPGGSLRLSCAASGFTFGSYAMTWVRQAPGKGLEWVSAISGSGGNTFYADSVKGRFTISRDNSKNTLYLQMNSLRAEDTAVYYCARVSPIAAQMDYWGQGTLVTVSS VL: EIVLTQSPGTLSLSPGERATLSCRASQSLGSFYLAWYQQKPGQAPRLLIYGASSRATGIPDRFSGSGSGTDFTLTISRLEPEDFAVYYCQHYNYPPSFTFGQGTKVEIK	38.6 min

Form: binder = L1.GDF/L3.KW/H3.AL (antibody, V domains shown, IgG) VH: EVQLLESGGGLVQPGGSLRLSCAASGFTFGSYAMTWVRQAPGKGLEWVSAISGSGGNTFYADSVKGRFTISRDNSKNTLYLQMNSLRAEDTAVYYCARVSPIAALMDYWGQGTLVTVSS VL: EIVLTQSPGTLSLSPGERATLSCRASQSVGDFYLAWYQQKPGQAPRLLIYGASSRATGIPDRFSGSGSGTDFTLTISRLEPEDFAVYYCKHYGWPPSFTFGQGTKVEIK ; T ½ = 2.96 min

Form: binder = L1.LGF/L3.PY/H3.AP (antibody, V domains shown, IgG) VH: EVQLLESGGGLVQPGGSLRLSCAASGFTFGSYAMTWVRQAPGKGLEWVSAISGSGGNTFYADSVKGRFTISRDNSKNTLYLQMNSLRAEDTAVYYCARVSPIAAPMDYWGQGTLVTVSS VL: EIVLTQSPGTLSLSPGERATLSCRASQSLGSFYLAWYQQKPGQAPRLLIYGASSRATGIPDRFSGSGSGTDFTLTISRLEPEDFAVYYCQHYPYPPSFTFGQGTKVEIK ; T ½ = 11.9 min

Form: binder = L1.GDF/L3.NY/H3.AL (antibody, V domains shown, IgG) VH: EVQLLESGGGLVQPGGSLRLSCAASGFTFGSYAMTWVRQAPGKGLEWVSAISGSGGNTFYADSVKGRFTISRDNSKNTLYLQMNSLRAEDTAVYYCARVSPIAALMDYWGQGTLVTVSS VL: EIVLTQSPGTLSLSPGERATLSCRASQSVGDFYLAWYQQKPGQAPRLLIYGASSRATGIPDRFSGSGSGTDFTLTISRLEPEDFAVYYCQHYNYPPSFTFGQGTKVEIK ; T ½ = 2.87 min

Form: binder = L1.LGF/L3.NY/P6E01 (antibody, V domains shown, IgG) VH: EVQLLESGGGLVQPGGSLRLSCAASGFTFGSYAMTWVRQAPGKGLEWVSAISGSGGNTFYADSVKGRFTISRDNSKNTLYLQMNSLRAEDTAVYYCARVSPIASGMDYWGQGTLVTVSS VL: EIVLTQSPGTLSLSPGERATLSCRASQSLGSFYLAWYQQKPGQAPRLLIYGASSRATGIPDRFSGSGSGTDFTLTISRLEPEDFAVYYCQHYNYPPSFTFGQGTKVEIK ; T ½ = 2.63 min

Form: binder = L1.LGF/L3.NY/H3.AP (antibody, V domains shown, IgG) VH: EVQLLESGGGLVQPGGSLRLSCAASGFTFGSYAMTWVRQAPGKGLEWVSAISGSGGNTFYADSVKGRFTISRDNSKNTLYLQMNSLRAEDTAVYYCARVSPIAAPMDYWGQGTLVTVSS VL: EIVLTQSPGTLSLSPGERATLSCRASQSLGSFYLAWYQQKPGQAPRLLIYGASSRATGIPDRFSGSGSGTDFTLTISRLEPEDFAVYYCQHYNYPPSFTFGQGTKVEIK ; T ½ = 21.7 min
